# Test system: CCRF-CEM
# test: NCI tumour cell line growth inhibition, 48 h
The source made the active and inactive calls. Cut-off read from the data, not from the text of the source: active = GI50 up to about 1.1 µM and inactive = higher.
Possible outcomes: label 1 (active), label 0 (inactive)

{"compound": "c1ccc(C/C(=N\\Nc2nc3ccccc3o2)c2ccccn2)cc1", "class": "label 1"}
{"compound": "Cc1cccc(-n2c(=S)[nH]c3c(sc(=O)n3-c3ccccc3C)c2=O)c1", "class": "label 0"}
{"compound": "O=c1cc(NCC2CCCCC2)[nH]c(=O)[nH]1", "class": "label 0"}
{"compound": "CCOC(=O)C1CC(C(=O)c2ccccc2)N2c3ccccc3-c3ccccc3C12 (stereo not drawn)", "class": "label 0"}
{"compound": "CCOC(=O)[C@@]12CCC(C1=O)[C@](C)(O)C[C@@H]2c1ccccc1", "class": "label 0"}
{"compound": "CCCCSCc1nc2nc(Cl)c(Cl)nc2[nH]1", "class": "label 0"}
{"compound": "COc1cc2ccc1-c1cc(ccc1O)CC1c3cc4c(cc3CCN1C)Oc1c(OC)cc3c(c1O4)C(C2)N(C)CC3 (stereo not drawn)", "class": "label 0"}
{"compound": "COc1cc([N+](=O)[O-])c(S(=O)(=O)O)cc1N", "class": "label 0"}
{"compound": "O=C(Nc1ccc(Cl)cc1Cl)c1c/c(=N\\O)c2ccc(O)cc2o1", "class": "label 0"}
{"compound": "CCO/N=[N+](\\[O-])N(CC)CC", "class": "label 0"}
{"compound": "CC(C)=CC(=O)CC(=O)C(=O)Nc1ccc(C)c(C)c1", "class": "label 0"}
{"compound": "COC(=O)/C=C(\\S/C(=C(/c1ccccc1)n1cc(C(=O)OC)c(C(=O)OC)n1)c1ccccc1)C(=O)OC", "class": "label 0"}
{"compound": "Cn1c(=O)c2[nH]c(-n3nc(-c4ccccc4)cc3N)nc2n(C)c1=O", "class": "label 0"}
{"compound": "Cc1cn(C2CC(O)C(COC(=O)NCCC(F)(F)C(F)(F)C(F)(F)C(F)(F)F)O2)c(=O)[nH]c1=O (stereo not drawn)", "class": "label 0"}
{"compound": "CN(CCN(C)Cc1ccc(Cl)c(Cl)c1)CCN1CCCC1", "class": "label 0"}
{"compound": "c1ccc(-c2cnc3nc4ccccc4nc3n2)cc1", "class": "label 1"}
{"compound": "O=C(Nc1ccc(C(F)(F)F)cc1[N+](=O)[O-])C(=O)Nn1c(S)nc2ccccc2c1=O", "class": "label 0"}
{"compound": "O=C(Nc1ccc(Cl)cc1)c1cc2c(cc1Cl)SC(NNCCO)=NS2(=O)=O", "class": "label 0"}
{"compound": "Cc1cccc(CC(Cc2c(C)cccc2C(=O)O)C(=O)O)c1 (stereo not drawn)", "class": "label 0"}
{"compound": "c1ccc2c(c1)ccc1nc3ccccn3c12", "class": "label 0"}
{"compound": "CC(CO)(CBr)COC(=O)c1cc(Br)c(N)c(Br)c1 (stereo not drawn)", "class": "label 0"}
{"compound": "O=C1Nc2c(Cl)cccc2/C1=N/Nc1ccccc1[N+](=O)[O-]", "class": "label 0"}
{"compound": "O=C1NC(=O)c2c1n(Cc1ccccc1)c(=O)n2Cc1ccccc1", "class": "label 0"}
{"compound": "CC1(C)C2CCC(N)(C2)C1N (stereo not drawn)", "class": "label 0"}
{"compound": "[O-][Cl+3]([O-])([O-])O.c1ccc(/N=c2\\snc(-c3ccccc3)s2)cc1", "class": "label 0"}
{"compound": "OC1C2CCCCN2C[C@@H](O)[C@H]1O (stereo partly drawn)", "class": "label 0"}
{"compound": "CCN1CCC(O)(c2ccc([N+](=O)[O-])cc2)C(C(=O)c2ccc([N+](=O)[O-])cc2)C1 (stereo not drawn)", "class": "label 0"}
{"compound": "COc1ccc(Cc2ccc3nc(O)cc(C)c3c2)cc1S(=O)(=O)O", "class": "label 0"}
{"compound": "O=C1Nc2cccc(C(F)(F)F)c2/C1=N/Nc1ccccc1[N+](=O)[O-]", "class": "label 0"}
{"compound": "COc1cc([N+](=O)[O-])ccc1NC(=O)C(F)(F)F", "class": "label 0"}
{"compound": "CC(C)[C@H](O)C(=O)N[C@H]1Cc2ccc3c(c2)[C@]24C5=C(N=C(O5)[C@H](C(C)C)NC1=O)c1nc(Cl)c(o1)-c1c(Cl)[nH]c5cccc(c15)-c1cccc2c1N[C@H]4O3", "class": "label 1"}
{"compound": "O=C1c2c(O)cccc2C(C(=O)CCCCC(=O)C2c3cccc(O)c3C(=O)c3c(O)cccc32)c2cccc(O)c21", "class": "label 1"}
{"compound": "CN(C)CCCN1c2ccccc2CCc2ccc([N+](=O)[O-])cc21", "class": "label 0"}
{"compound": "CC(=O)NC1=C(NC(C)(C)C)C(=O)c2ccccc2C1=O", "class": "label 0"}
{"compound": "O=C(CC(=O)Nc1ccccc1Cl)NNC(Sc1ccccc1)c1cc(/N=N/c2ccc(Br)cc2)ccc1O (stereo not drawn)", "class": "label 1"}
{"compound": "c1ccc(-c2ccc(/N=N/N3CCCC3)cc2)cc1", "class": "label 0"}
{"compound": "CCC1CCC2c3c([nH]c4ccc(C)cc34)C3C(=O)N(N(C)C)C(=O)C3C2C1 (stereo not drawn)", "class": "label 0"}
{"compound": "NC1C2(CCCCCC2)NC(=O)C12CCCCCC2 (stereo not drawn)", "class": "label 0"}
{"compound": "Cc1n[nH]c(=O)c2c3c([nH]c12)-c1ccccc1C3", "class": "label 0"}
{"compound": "CC1(C)OC(=O)C(c2ccsc2)C(=O)O1", "class": "label 0"}
{"compound": "CCCC(=O)OC1=C(c2ccccc2)Sc2ccccc2-n2cccc21", "class": "label 0"}
{"compound": "CCCN(CCCCC(NC(C)=O)C(=O)NCc1ccccc1)C(=O)NC (stereo not drawn)", "class": "label 0"}
{"compound": "CCCC/C(C)=N/NC(N)=S", "class": "label 0"}
